# TESTED ON: full-length recombinant rat vitamin D receptor (Rattus norvegicus, UniProt P13053)
# Construct: Full-length recombinant rat receptor was expressed in E. coli BL21 (DE3) Codon Plus RIL cells; histidine tag (C); made in house; host or cells: E. coli BL21 (DE3) Codon Plus RIL
# Sequence (P13053 1-423): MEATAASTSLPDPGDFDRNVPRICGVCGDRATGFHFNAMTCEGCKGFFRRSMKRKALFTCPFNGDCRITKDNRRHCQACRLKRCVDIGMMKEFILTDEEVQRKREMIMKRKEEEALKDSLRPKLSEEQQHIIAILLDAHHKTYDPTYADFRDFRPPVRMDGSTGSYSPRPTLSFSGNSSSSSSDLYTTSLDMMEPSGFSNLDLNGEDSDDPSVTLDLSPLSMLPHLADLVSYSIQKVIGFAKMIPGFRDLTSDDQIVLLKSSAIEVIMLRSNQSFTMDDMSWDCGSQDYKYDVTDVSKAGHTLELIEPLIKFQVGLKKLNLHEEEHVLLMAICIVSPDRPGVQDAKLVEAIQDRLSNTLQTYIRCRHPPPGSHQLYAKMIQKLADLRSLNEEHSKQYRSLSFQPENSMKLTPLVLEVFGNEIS
# ASSAY PROTOCOL: Vitamin D receptor binding, competition with [3H]-1,25(OH)2D3
# SETUP CONDITIONS: full-length recombinant rat VDR; 1 nM radioligand
MEASUREMENT NAME: Ki (nM)

[a] CCCCC(C)C1CCC2C(=CC=C3CC(O)C(C)C(O)C3)CCCC21C (single isomer, unassigned) [C-19]
[b] CCCCC(C)C1CCC2C(=CC=C3CC(O)C(C)C(O)C3)CCCC21C (single isomer, unassigned) [N-16]
Query string: Which entry shows the lesser value of Ki here, a or b ? // respond with label for picked entry
Result string: a
